The measurements presented in this section are drawn from PubChem BioAssay.

assay: reversal of MRP1-mediated doxorubicin resistance, pilot screen, H69AR cells, doxorubicin co-treatment (AID 601); conditions: H69AR cells, CellTiter-Glo, 72 h; compound alone cytotoxicity; at 10 µM
Decision: viability beneath 90% gives TRUE; viability meeting or exceeding 90% gives FALSE.

Known results for compounds:
>  <Compound>
O=C(CSc1nnnn1C1CCCCC1)N1CCc2ccccc21

>  <Assigned Class>
TRUE

$$$$
>  <Compound>
O=C(CN(C(=O)CCNC(=O)c1ccco1)c1ccccc1)NC1CCCC1

>  <Assigned Class>
FALSE

$$$$
>  <Compound>
c1ccc(CCn2nnnc2CN2CCN(C3CCCC3)CC2)cc1

>  <Assigned Class>
FALSE

$$$$
>  <Compound>
CCOC(=O)c1c(C)[nH]c(C)c1C(=O)COc1ccc(NC(=O)c2ccco2)cc1

>  <Assigned Class>
TRUE

$$$$
>  <Compound>
CC(=O)OC1c2ccccc2C(=O)N1c1ccccc1C (stereo unspecified)

>  <Assigned Class>
FALSE

$$$$
>  <Compound>
COc1ccc2[nH]c(=O)c(CN(CCO)S(=O)(=O)c3ccc4c(c3)OCCO4)cc2c1

>  <Assigned Class>
FALSE

$$$$

Is viability strictly under 90% for the entry O=C(CSc1nnc(-c2cccs2)o1)N1CCOCC1 ? FALSE

Take the compound COc1ccc(N2CCN(c3ccc(NC(=O)C4CCCCC4)cc3C#N)CC2)cc1 and say whether its viability is less than 90%. FALSE

API: query returns whether the compound falls strictly under 90% in viability. Query: Cc1cc(OC(=O)N2CCOCC2)cc(C)c1Cl FALSE

Please state whether viability is below 90% for COc1ccc(-c2ccc(-c3nnc(-c4ccncc4)o3)cc2)cc1 FALSE
